Could you please report measured residual activity for the items listed next?
# Test system: MKNK1 (human), Q9BUB5 [T385D; 165-205 del]
# Sequence (Q9BUB5 whole entry, looked up, stated change not applied): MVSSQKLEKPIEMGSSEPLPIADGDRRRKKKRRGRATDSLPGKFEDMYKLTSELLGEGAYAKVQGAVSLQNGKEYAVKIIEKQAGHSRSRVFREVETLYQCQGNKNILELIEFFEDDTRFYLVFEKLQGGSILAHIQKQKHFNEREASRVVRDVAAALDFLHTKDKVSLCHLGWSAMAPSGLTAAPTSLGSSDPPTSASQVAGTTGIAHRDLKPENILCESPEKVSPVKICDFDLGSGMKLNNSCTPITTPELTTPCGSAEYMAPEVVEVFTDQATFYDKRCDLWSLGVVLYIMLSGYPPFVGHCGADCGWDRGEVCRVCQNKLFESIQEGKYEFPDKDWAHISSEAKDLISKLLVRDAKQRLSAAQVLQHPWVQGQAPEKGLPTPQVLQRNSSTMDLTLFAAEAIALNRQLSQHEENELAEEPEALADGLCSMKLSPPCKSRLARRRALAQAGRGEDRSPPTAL
# Protocol: radiometric filter-binding kinase assay, Kinase HotSpot
# Experimental Context: compound 0.5 µM; ATP 10 µM
Answers are plain numbers, in %.

Solved entries (count: 5):
- Structure Notation: "O=S(=O)(c1cccc2cnccc12)N1CCCNCC1"
  Test Target: "MKNK1 (human), Q9BUB5 [T385D; 165-205 del]"
  residual activity [%]: 91.8
- Structure Notation: "O=c1cc(-c2cccc3c2Sc2ccccc2S3)oc(N2CCOCC2)c1"
  Test Target: "MKNK1 (human), Q9BUB5 [T385D; 165-205 del]"
  residual activity [%]: 99.5
- Structure Notation: "Fc1ccc(-c2nc3n(c2-c2ccncc2)CCS3)cc1"
  Test Target: "MKNK1 (human), Q9BUB5 [T385D; 165-205 del]"
  residual activity [%]: 102
- Structure Notation: "COc1ccc(-c2cnc3c(-c4ccsc4)cnn3c2)cc1"
  Test Target: "MKNK1 (human), Q9BUB5 [T385D; 165-205 del]"
  residual activity [%]: 87.1
- Structure Notation: "COc1ccc2c(c1)/C(=C/c1cnc[nH]1)C(O)=N2"
  Test Target: "MKNK1 (human), Q9BUB5 [T385D; 165-205 del]"
  residual activity [%]: 88.4

Quick batch: residual activity for everything below.
1. N#C/C(=C1/Nc2ccccc2S1)c1ccnc(NCCc2cccnc2)n1
2. CNC(=O)c1cc(Oc2ccc(NC(=O)Nc3ccc(Cl)c(C(F)(F)F)c3)cc2)ccn1

Given back:
90.2
75.1

Batch request: residual activity for each of the following compounds.
1. COc1ccc(Cl)cc1NC(=O)Nc1cc(C)nc2ccccc12
2. Cc1cccc(-c2nc(C(C)(C)C)[nH]c2-c2ccc3c(c2)OCO3)n1
3. N#Cc1c[nH]c2c[nH]/c(=N\Cc3cccnc3)cc2/c1=N\c1ccc(F)c(Cl)c1

Given back:
101
86.8
73.2

Give residual activity for each listed item.
1. O=c1c2ccccc2[nH]c(=S)n1CCN1CCC(=C(c2ccc(F)cc2)c2ccc(F)cc2)CC1
2. COc1cc2ncnc(Nc3ccc(O)c(Br)c3)c2cc1OC
3. CCCNC(=O)Nc1ccc(Oc2ncnc3cc(OC)c(OC)cc23)cc1Cl
4. CCn1cnc2c(Nc3cccc(Cl)c3)nc(N[C@@H]3CCCC[C@@H]3N)nc21
5. O=C(O)c1ccc2c3c1cccc3c(=O)n1c3ccccc3nc21
6. O=C(Nc1cccc(Nc2nccc(Nc3cccc(C(F)(F)F)c3)n2)c1)C1CC1

Given back:
[101, 32.7, 95.2, 101, 60.3, 91]

I need residual activity for every entry listed below, if you could help.
1. O=C1NC(=O)C(c2c[nH]c3ccccc23)=C1c1c[nH]c2ccccc12
2. c1ccc(-c2cnc(Nc3ccc(OCCN4CCCC4)cc3)s2)cc1

Given back:
115
64.7
